# assay.target: Metabotropic glutamate receptor 5 (Rattus norvegicus, UniProt P31424)
# Sequence (P31424 whole entry): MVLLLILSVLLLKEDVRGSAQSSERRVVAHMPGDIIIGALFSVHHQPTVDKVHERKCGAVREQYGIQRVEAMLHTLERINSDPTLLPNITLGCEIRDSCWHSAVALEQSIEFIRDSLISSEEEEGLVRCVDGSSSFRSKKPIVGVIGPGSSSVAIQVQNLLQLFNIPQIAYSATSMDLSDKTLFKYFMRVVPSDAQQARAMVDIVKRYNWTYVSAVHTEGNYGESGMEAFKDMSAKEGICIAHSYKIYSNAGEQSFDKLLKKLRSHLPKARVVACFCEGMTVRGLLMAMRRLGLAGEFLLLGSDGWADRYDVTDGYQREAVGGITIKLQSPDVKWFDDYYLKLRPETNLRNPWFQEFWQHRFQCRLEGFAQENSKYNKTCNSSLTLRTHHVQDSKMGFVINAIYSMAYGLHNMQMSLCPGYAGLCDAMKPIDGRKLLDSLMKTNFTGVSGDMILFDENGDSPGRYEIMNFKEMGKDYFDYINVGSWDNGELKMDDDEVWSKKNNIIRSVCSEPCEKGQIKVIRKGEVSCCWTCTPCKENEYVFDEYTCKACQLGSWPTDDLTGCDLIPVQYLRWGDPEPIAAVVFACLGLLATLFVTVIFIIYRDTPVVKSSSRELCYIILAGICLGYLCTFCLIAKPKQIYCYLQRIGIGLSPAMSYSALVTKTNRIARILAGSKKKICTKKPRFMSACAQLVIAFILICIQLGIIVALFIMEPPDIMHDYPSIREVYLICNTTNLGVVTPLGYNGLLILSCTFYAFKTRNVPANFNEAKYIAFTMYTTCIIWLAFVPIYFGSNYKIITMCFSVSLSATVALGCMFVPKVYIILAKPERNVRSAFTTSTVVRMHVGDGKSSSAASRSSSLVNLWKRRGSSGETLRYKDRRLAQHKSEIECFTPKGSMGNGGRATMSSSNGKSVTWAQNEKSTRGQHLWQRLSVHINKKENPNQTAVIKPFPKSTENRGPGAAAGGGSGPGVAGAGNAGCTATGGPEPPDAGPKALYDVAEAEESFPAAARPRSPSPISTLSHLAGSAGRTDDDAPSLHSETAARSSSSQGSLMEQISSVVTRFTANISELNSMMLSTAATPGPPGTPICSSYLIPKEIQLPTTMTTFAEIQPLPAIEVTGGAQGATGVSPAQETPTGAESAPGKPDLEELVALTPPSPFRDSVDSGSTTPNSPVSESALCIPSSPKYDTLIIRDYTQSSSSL
# assay.info: Negative allosteric modulation of rat mGluR5 expressed in HEK293 assessed as decrease in intracellular calcium incubated for 30 mins by Fluo-6 calcium dye based FLIPR assay
assay.endpoint: pIC50
Interpret pIC50 as the negative base-10 log of the concentration measured in mol/L.

q: Would you mind telling me what pIC50 value was observed for "Cc1ccc(C#Cc2ncnc3c2cc(C(=O)Nc2ccccc2)n3C)cc1" ?
a: 5.86

q: Would you mind telling me what pIC50 value was observed for "Cn1c(C(=O)Nc2ccc(F)cc2)cc2c(C#Cc3ccccn3)ncnc21" ?
a: 5.50

q: Would you mind telling me what pIC50 value was observed for "Cn1c(C(=O)Nc2cccc(Cl)c2)cc2c(C#Cc3ccccc3)ncnc21" ?
a: 6.28

q: Would you mind telling me what pIC50 value was observed for "Cc1ccc(NC(=O)c2cc3c(C#Cc4ccc(F)cc4)ncnc3n2C)cc1" ?
a: 6.99

q: Would you mind telling me what pIC50 value was observed for "Cn1c(C(=O)Nc2ccc(Cl)cc2)cc2c(C#Cc3ccc(F)cc3)ncnc21" ?
a: 6.61

q: Would you mind telling me what pIC50 value was observed for "COc1ccc(C#Cc2ncnc3c2cc(C(=O)Nc2ccc(C(C)(C)C)cc2)n3C)cc1" ?
a: 6.13

q: Would you mind telling me what pIC50 value was observed for "Cn1c(C(=O)Nc2ccc(C(C)(C)C)cc2)cc2c(C#Cc3ccccn3)ncnc21" ?
a: 5.69

q: Would you mind telling me what pIC50 value was observed for "Cn1c(C(=O)Nc2ccccc2)cc2c(C#Cc3ccc(F)cc3)ncnc21" ?
a: 7.21

q: Would you mind telling me what pIC50 value was observed for "Cc1ccc(C#Cc2ncnc3c2cc(C(=O)Nc2ccc(N(C)C)cc2)n3C)cc1" ?
a: 5.42
